Tested on: UO-31 renal
test: NCI-60 one-dose screen, 48 h (100 = growth as untreated, 0 = no growth, -100 = all killed)
assay.conditions: 10 µM unless noted
This is part of a sample that, as a whole, favours compounds with a hit. Of some 83,000 tested, about 20% had one in any assay.
Note to self: use satisfied only for growth readings below 90%; a reading exactly at 90% still gets not satisfied.

Qu. I'd appreciate it if you could check whether "CC(=O)NCNC(C)=O" has growth smaller than 90%.
Ans. not satisfied

Qu. I'd appreciate it if you could check whether "CN(CCCN(C)CCC1CCCCC1)CCC1CCCCC1" has growth smaller than 90%.
Ans. satisfied

Qu. I'd appreciate it if you could check whether "CN(C)c1ccc(/C=C/C(=O)c2ccc(NC(N)=O)cc2)cc1" has growth smaller than 90%.
Ans. satisfied

Qu. I'd appreciate it if you could check whether "O=C1NC(=O)/C(=C\c2ccncc2)N1" has growth smaller than 90%.
Ans. not satisfied

Qu. I'd appreciate it if you could check whether "CCOC(=O)c1ccc(Nc2sc(C(=O)c3ccc(Br)cc3)c(N)c2C#N)cc1" has growth smaller than 90%.
Ans. satisfied

Qu. I'd appreciate it if you could check whether "O=C(O)Cc1ccccn1" has growth smaller than 90%.
Ans. not satisfied

Qu. I'd appreciate it if you could check whether CSCCC(NC(=O)C(Cl)Cl)C(=O)O (centres undefined) has growth smaller than 90%.
Ans. not satisfied

Qu. I'd appreciate it if you could check whether "COc1ccc2c(c1)Nc1ccccc1S2" has growth smaller than 90%.
Ans. not satisfied

Qu. I'd appreciate it if you could check whether "CCOc1ccc2c(c1)c(C)cc(C)[n+]2CC" has growth smaller than 90%.
Ans. satisfied

Qu. I'd appreciate it if you could check whether "CCOC(=O)CO" has growth smaller than 90%.
Ans. satisfied

Qu. I'd appreciate it if you could check whether COc1ccc(C2CCCCC2=O)cc1 (centres undefined) has growth smaller than 90%.
Ans. not satisfied

Qu. I'd appreciate it if you could check whether C=CCC(OC(C)=O)c1ccc(C(C)C)cc1 (centres undefined) has growth smaller than 90%.
Ans. satisfied

Qu. I'd appreciate it if you could check whether "Nc1c(Br)cc(O)c2c1C(=O)c1ccccc1C2=O" has growth smaller than 90%.
Ans. satisfied

Qu. I'd appreciate it if you could check whether "O=C(NC(=S)N1CC=CCC1)c1ccccc1" has growth smaller than 90%.
Ans. satisfied

Qu. I'd appreciate it if you could check whether "Cc1cc(=O)n(Nc2ccccc2)c(O)c1C#N" has growth smaller than 90%.
Ans. satisfied

Qu. I'd appreciate it if you could check whether C/C=C/C1OCC(CC)C(CCC)O1 (centres undefined) has growth smaller than 90%.
Ans. satisfied

Qu. I'd appreciate it if you could check whether "Nc1nnc2cc(F)ccc2n1" has growth smaller than 90%.
Ans. satisfied

Qu. I'd appreciate it if you could check whether "OC(CCN1CCCCC1)(c1ccccc1)c1ccccc1" has growth smaller than 90%.
Ans. satisfied

Qu. I'd appreciate it if you could check whether "CCOC(=O)/C(C)=C\c1ccc(OC)c(OC)c1" has growth smaller than 90%.
Ans. not satisfied

Qu. I'd appreciate it if you could check whether COC1=C(OC)C(=O)C(SC/C=C(\C)CCCC(C)CCCC(C)CCCC(C)C)=CC1=O (centres undefined) has growth smaller than 90%.
Ans. satisfied

Qu. I'd appreciate it if you could check whether "COC(=O)c1cccc([N+](=O)[O-])c1" has growth smaller than 90%.
Ans. not satisfied

Qu. I'd appreciate it if you could check whether COc1cc2c(c(OC)c1OC)-c1ccc(SC)c(=O)cc1[C@@H](NC1OC(CO)C(O)C(O)C1O)CC2 (some centres undefined) has growth smaller than 90%.
Ans. satisfied

Qu. I'd appreciate it if you could check whether "CCOC(=O)C1(N)CCCCC1" has growth smaller than 90%.
Ans. satisfied

Qu. I'd appreciate it if you could check whether "CC(=O)C[n+]1ccc(C)cc1Sc1ccccc1C" has growth smaller than 90%.
Ans. satisfied

Qu. I'd appreciate it if you could check whether O=C(O)C1CCCN1C(=O)OCc1ccccc1 (centres undefined) has growth smaller than 90%.
Ans. satisfied

Qu. I'd appreciate it if you could check whether "C=CCN1CCCC1=O" has growth smaller than 90%.
Ans. not satisfied

Qu. I'd appreciate it if you could check whether "Oc1ccc2ccccc2c1CN1CCOCC1" has growth smaller than 90%.
Ans. satisfied

Qu. I'd appreciate it if you could check whether "CCOC(=O)C(COS(C)(=O)=O)(COS(C)(=O)=O)C(=O)OCC" has growth smaller than 90%.
Ans. not satisfied

Qu. I'd appreciate it if you could check whether "CCOC(=O)c1c[nH][nH]c1=O" has growth smaller than 90%.
Ans. not satisfied

Qu. I'd appreciate it if you could check whether "Cn1c(=O)c2nc3c(=O)n(C)c(=O)n(C)c3nc2n(C)c1=O" has growth smaller than 90%.
Ans. satisfied

Qu. I'd appreciate it if you could check whether "CCOC(=O)N[C@H]1CCc2cc(OC)c(OC)c(OC)c2-c2ccc(SC)c(=O)cc21" has growth smaller than 90%.
Ans. satisfied

Qu. I'd appreciate it if you could check whether "N#CC1(O)CCCCC1" has growth smaller than 90%.
Ans. satisfied

Qu. I'd appreciate it if you could check whether N=C(N)c1nn(C2OC(CO)C(O)C2O)c2nc[nH]c(=O)c12 (centres undefined) has growth smaller than 90%.
Ans. satisfied

Qu. I'd appreciate it if you could check whether "Nc1cc(F)ccc1[N+](=O)[O-]" has growth smaller than 90%.
Ans. not satisfied

Qu. I'd appreciate it if you could check whether "Cc1ccc([N+](=O)[O-])c(C)n1" has growth smaller than 90%.
Ans. satisfied

Qu. I'd appreciate it if you could check whether "O=C(O)CCCCCNC(=O)OCc1ccccc1" has growth smaller than 90%.
Ans. satisfied

Qu. I'd appreciate it if you could check whether "CN(C)c1ccc2nc3ccc(=[N+](C)C)cc-3oc2c1" has growth smaller than 90%.
Ans. satisfied

Qu. I'd appreciate it if you could check whether "Cc1cc(Nc2ccc3c(c2)OCO3)c2cc3c(cc2n1)OCO3" has growth smaller than 90%.
Ans. satisfied

Qu. I'd appreciate it if you could check whether "CCC(=O)Oc1c(C)cc(O)c2ccccc12" has growth smaller than 90%.
Ans. satisfied

Qu. I'd appreciate it if you could check whether "O=C(c1ccc(Cl)cc1)N1CCCCC1" has growth smaller than 90%.
Ans. not satisfied

Qu. I'd appreciate it if you could check whether "FC(F)(F)c1cc(NC2=NCCN=C(Nc3cc(C(F)(F)F)cc(C(F)(F)F)c3)SS2)cc(C(F)(F)F)c1" has growth smaller than 90%.
Ans. satisfied

Qu. I'd appreciate it if you could check whether "C=C1SC(=Nc2c(C)cccc2C)N(c2nc(Cl)nc(Cl)n2)C12CCCCC2" has growth smaller than 90%.
Ans. satisfied

Qu. I'd appreciate it if you could check whether "O=[N+]([O-])c1c(Cl)ncnc1Cl" has growth smaller than 90%.
Ans. not satisfied

Qu. I'd appreciate it if you could check whether "C1=NCCc2ccccc21" has growth smaller than 90%.
Ans. satisfied
